Measured values drawn from the supplement of paper PMC10567573 for this set.

B1: DFFB (parent)
chain: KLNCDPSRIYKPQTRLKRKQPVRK

Variants of: B1
assay.explanation: protein stability index of a GFP-peptide fusion (GPS, HEK-293T) (PSI 1-6); higher = more stable;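 note: lentivirally expressed fusions sorted by FACS into six bins by GFP to DsRed ratio, PSI derived from sequencing read proportions per bin multiplied by bin number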
study.conditions: c terminus: a fixed tail appended
observable: protein stability index
One number for each entry.

Record protein stability index for all entries; do not skip any.
1. K19I
2. V22E
3. L2Y

Reply:
1: 3.18; 2: 3.31; 3: 3.55

Hey, can you go through the list below and give me protein stability index for every item?
1. N3T
2. L16C
3. K19S
4. C4E

Reply:
[3.96, 2.95, 2.78, 3.65]

Could I get protein stability index for every one of these entries?
1. L2S
2. K1E
3. L2E
4. N3V
5. C4L
6. K11F
7. R15C
8. K17C

Reply:
1: 4.16; 2: 3.42; 3: 4.52; 4: 3.96; 5: 3.24; 6: 3.09; 7: 3.24; 8: 3.38
